Hello, the source for this data is patent US20240217983A1, in case you need it.

Form field: pEC50 (one value per entry).
Test Target: human GPR119 (hGPR119) (Homo sapiens, UniProt Q8TDV5)
Measurement Protocol: cAMP accumulation assay (Cisbio cAMP Gs dynamic HTRF kit) in CHO-K1 cells stably expressing human GPR119
Condition Description: 60 minutes at 37° C., 4-parameter fit
pEC50: −log10 of the molar value.

Compound	pEC50
O=C(Cc1ccc(OCCCC2CCN(c3ncc(Cl)cn3)CC2)cc1F)N1C[C@@H]2CN(C[C@H](O)[C@@H](O)[C@H](O)[C@H](O)CO)C[C@@H]21	≥ 7.00
O=C(Cc1ccc(OCCCC2CCN(c3ncc(Cl)cn3)CC2)cc1F)N1CC2CCC1CN2C[C@H](O)[C@@H](O)[C@H](O)[C@H](O)CO (stereo partly drawn)	≥ 7.00
COCc1cnc(N2CCC(CCCOc3cc(F)c(CC(=O)N4CCN(C[C@H](O)[C@@H](O)[C@H](O)[C@H](O)CO)CC4)c(F)c3)CC2)nc1	≥ 7.00
CCCc1cnc(N2CCC(CCCOc3ccc(CC(=O)N4CCN(C[C@H](O)[C@@H](O)[C@H](O)[C@H](O)CO)CC4)c(F)c3)CC2)nc1	≥ 7.00
O=C(Cc1ccc(OCCCC2CCN(c3ncc(Cl)cn3)CC2)cc1F)N1C[C@H]2CCN(C[C@H](O)[C@H](O)[C@H](O)CO)[C@H]2C1	≥ 7.00
O=C(CCCCS(=O)(=O)O)N1C[C@H]2C[C@@H]1CN2C(=O)Cc1ccc(OCCCC2CCN(c3ncc(Cl)cn3)CC2)cc1F	≥ 7.00

Please fill in: pEC50 reported for "O=C(Cc1ccc(OCCCC2CCN(c3ncc(Cl)cn3)CC2)cc1F)N1CCC2(C1)CN(C(=O)CCCCS(=O)(=O)O)C2" = ≥ 7.00

Please fill in: pEC50 reported for "O=C(Cc1ccc(OCCC2CC3(CCN(c4ncc(Cl)cn4)CC3)C2)cc1F)N1CCN(C[C@H](O)[C@@H](O)[C@H](O)[C@H](O)CO)CC1" = 6.00 to 7.00

---

Form field: Emax (one value per entry).
Test Target: human GPR119 (hGPR119) (Homo sapiens)
Construct: expressed in transfected cells
Sequence (Q8TDV5 1-335): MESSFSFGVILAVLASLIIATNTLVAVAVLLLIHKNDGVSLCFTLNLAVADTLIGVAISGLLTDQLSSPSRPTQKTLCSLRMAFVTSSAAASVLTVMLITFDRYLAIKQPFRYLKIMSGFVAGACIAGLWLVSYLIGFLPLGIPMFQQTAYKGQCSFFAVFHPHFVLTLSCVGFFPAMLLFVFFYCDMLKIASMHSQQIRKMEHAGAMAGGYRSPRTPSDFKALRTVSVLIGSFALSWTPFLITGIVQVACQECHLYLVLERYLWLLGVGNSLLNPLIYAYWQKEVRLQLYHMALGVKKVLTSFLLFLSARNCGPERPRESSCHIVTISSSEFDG
Measurement Protocol: cAMP accumulation assay (Cisbio cAMP Gs dynamic HTRF kit) in CHO-K1 cells stably expressing human GPR119
Assay type: cell-based
Condition Description: 1 h, % activity normalized to Max and Min controls, 4-parameter fit
Procedure: CHO-K1 cells stably expressing human GPR119 (hGPR119) were prepared by transfection of a GPR119-carrying plasmid using Lipofectamine 2000 (following manufacturer instructions). […] Assay-ready frozen (ARF) cells were prepared and used throughout the study. […] RT-FRET was measured using a ClarioSTAR plate reader, calculating the ratio between emissions at 665 nm and 620 nm (HTRF ratio). […] EC50 and Max activity values were determined using a standard 4-parameter fit.

Compound	Emax
O=C(Cc1ccc(OCCCCC2CCN(c3ncc(Cl)cn3)CC2)cc1F)N1CCN(C[C@H](O)[C@@H](O)[C@H](O)[C@H](O)CO)CC1 [Example 86]	100 to 130%
COCc1cnc(N2CCC(CCCOc3cc(F)c(CC(=O)N4CCN(C[C@H](O)[C@@H](O)[C@H](O)[C@H](O)CO)CC4)c(F)c3)CC2)nc1 [Example 99]	100 to 130%
O=C(Cc1ccc(OCCCC2CCN(c3ncc(Cl)cn3)CC2)cc1F)N1CCC2(CCCC2NC[C@H](O)[C@H](O)[C@H](O)CO)C1 (stereo partly drawn) [Example 76]	≥ 130%
O=C(Cc1ccc(OCCCC2CCN(c3ncc(Cl)cn3)CC2)cc1F)N1CC2(CN(C[C@H](O)[C@@H](O)[C@H](O)[C@H](O)CO)C2)C1 [Example 26]	100 to 130%

Please fill in: Emax reported for O=C(Cc1ccc(OCCCC2CCN(c3ncc(Cl)cn3)CC2)cc1F)N1CCOC2(CCN(C[C@H](O)[C@H](O)[C@H](O)CO)C2)C1 (stereo partly drawn) [Example 80] = 100 to 130%

Please fill in: Emax reported for O=C(Cc1ccc(OCCCC2CCN(c3ncc(Cl)cn3)CC2)cc1F)N1C[C@@H]2CN(C[C@H](O)[C@H](O)[C@H](O)CO)C[C@@H]21 [Example 38] = 100 to 130%

---

Form field: EC50 (one value per entry).
Test Target: human GPR119 (hGPR119) (Homo sapiens, UniProt Q8TDV5)
Measurement Protocol: cAMP accumulation assay (Cisbio cAMP Gs dynamic HTRF kit) in CHO-K1 cells stably expressing human GPR119
Condition Description: 60 minutes at 37° C., 4-parameter fit

Molecule	Readout	Result
O=C(Cc1ccc(OCCCC2CCN(c3ncc(Cl)cn3)CC2)cc1F)N1CC[C@]2(CCC2NCC(O)C(O)C(O)CO)C1 (stereo in doubt)	EC50	≤ 100 nM
CCc1cnc(N2CCC(CCCOc3ccc(CC(=O)N4CCN(C[C@H](O)[C@@H](O)[C@H](O)[C@H](O)CO)CC4)c(F)c3)CC2)nc1	EC50	≤ 100 nM
O=C(CCCCS(=O)(=O)O)N1CCOC2(CCN(C(=O)Cc3ccc(OCCCC4CCN(c5ncc(Cl)cn5)CC4)cc3F)C2)C1 (stereo not drawn)	EC50	≤ 100 nM
O=C(Cc1ncc(OCCCC2CCN(c3ncc(Cl)cn3)CC2)cc1F)N1CCN(C[C@H](O)[C@@H](O)[C@H](O)[C@H](O)CO)CC1	EC50	100 to 1000 nM
O=C(Cc1ccc(OCCCC2CCN(c3ncc(Cl)cn3)CC2)cc1F)N1CCC2(CCCN2C[C@H](O)[C@H](O)[C@H](O)CO)C1 (stereo partly drawn)	EC50	≤ 100 nM
O=C(Cc1ccc(OCCCC2CCN(c3ncc(Cl)cn3)CC2)cc1F)N1CCN(C[C@H](O)[C@@H](O)[C@H](O)[C@H](O)CO)C2CC21 (stereo partly drawn)	EC50	≤ 100 nM
O=C(Cc1ccc(OCCCC2CCN(c3ncc(Cl)cn3)CC2)cc1F)N1C[C@H]2CN(C[C@H](O)[C@H](O)[C@H](O)CO)[C@H]2C1	EC50	100 to 1000 nM
O=C(Cc1ccc(OCCCC2CCN(c3ncc(Cl)cn3)CC2)cc1F)N1CCC2(CC2NC[C@H](O)[C@H](O)[C@H](O)CO)C1 (stereo partly drawn)	EC50	≤ 100 nM
O=C(Cc1ccc(OCCCC2CCN(c3ncc(Cl)cn3)CC2)cc1F)N1CC2(CCN(C[C@H](O)[C@H](O)[C@H](O)CO)C2)C1	EC50	≤ 100 nM
CCc1cnc(N2CCC(CCCOc3cc(F)c(CC(=O)N4CCN(C[C@H](O)[C@@H](O)[C@H](O)[C@H](O)CO)CC4)c(F)c3)CC2)nc1	EC50	≤ 100 nM

Please fill in: EC50 reported for "O=C(Cc1ccc(OCCCC2CCN(c3ncc(Cl)cn3)CC2)cc1F)N1CCC2(CC1)CCN2C(=O)CCCCS(=O)(=O)O" = ≤ 100 nM

Please fill in: EC50 reported for "O=C(Cc1ccc(OCCCC2CCN(c3ncc(Cl)cn3)CC2)cc1F)N1C[C@@H]2CCN(C[C@H](O)[C@H](O)[C@H](O)CO)[C@@H]2C1" = ≤ 100 nM

---

Test Target: human GPR119 (hGPR119) (Homo sapiens, UniProt Q8TDV5)
Construct: expressed in transfected cells
Measurement Protocol: cAMP accumulation assay (Cisbio cAMP Gs dynamic HTRF kit) in CHO-K1 cells stably expressing human GPR119
Assay type: cell-based
Condition Description: 1 h, % activity normalized to Max and Min controls, 4-parameter fit
Readout: Emax

Sample answers from the record:
Compound	Emax
O=C(Cc1ccc(OCCCC2CCN(c3ncc(Cl)cn3)CC2)cc1F)N1CCC2(CN(C[C@H](O)[C@H](O)[C@H](O)CO)C2)C1	100 to 130%
O=C(CCCCS(=O)(=O)O)N1CCOC2(CCN(C(=O)Cc3ccc(OCCCC4CCN(c5ncc(Cl)cn5)CC4)cc3F)C2)C1 (stereo not shown)	100 to 130%
O=C(Cc1c(F)cc(OCCCCC2CCN(c3ncc(Cl)cn3)CC2)cc1F)N1CCN(C[C@H](O)[C@@H](O)[C@H](O)[C@H](O)CO)CC1	≥ 130%
O=C(Cc1ccc(OCCCC2CCN(c3ncc(Cl)cn3)CC2)cc1F)N1C[C@H]2C[C@@H]1CN2C[C@H](O)[C@@H](O)[C@H](O)[C@H](O)CO	100 to 130%
O=C(CCCCS(=O)(=O)O)N1CC2(CCN2C(=O)Cc2ccc(OCCCC3CCN(c4ncc(Cl)cn4)CC3)cc2F)C1	100 to 130%
O=C(Cc1ccc(OCCCC2CCN(c3ncc(Cl)cn3)CC2)cc1F)N1C[C@@H]2CCN(C(=O)CCCCS(=O)(=O)O)[C@@H]2C1	≥ 130%
O=C(Cc1ccc(OCCCC2CCN(c3ncc(Cl)cn3)CC2)cc1F)N1CC[C@]2(CCC2NCC(O)C(O)C(O)CO)C1 (stereo in doubt)	≥ 130%
O=C(CCCCS(=O)(=O)O)N1CCCN(C(=O)Cc2ccc(OCCCC3CCN(c4ncc(Cl)cn4)CC3)cc2F)CC1	100 to 130%
O=C(Cc1ccc(OCCCC2CCN(c3ncc(Cl)cn3)CC2)cc1F)N1CC2(CCN2C(=O)CCCCS(=O)(=O)O)C1	100 to 130%
CC(C)OC(=O)N1CCC(CCCOc2ccc(CC(=O)N3CCN(C[C@H](O)[C@@H](O)[C@H](O)[C@H](O)CO)CC3)c(F)c2)CC1	100 to 130%

Recorded Emax for "O=C(CCCCS(=O)(=O)O)N1CC2(C1)CN(C(=O)Cc1ccc(OCCCC3CCN(c4ncc(Cl)cn4)CC3)cc1F)C2" on human GPR119 (hGPR119) (Homo sapiens, UniProt Q8TDV5) was 100 to 130%

Recorded Emax for "O=C(Cc1ccc(OCCCC2CCN(c3ncc(Cl)cn3)CC2)cc1F)N1CCN(C[C@H](O)[C@H](O)[C@H](O)CO)CC1" on human GPR119 (hGPR119) (Homo sapiens, UniProt Q8TDV5) was 100 to 130%

Recorded Emax for O=C(Cc1ccc(OCCC2CCC23CCN(c2ncc(Cl)cn2)CC3)cc1F)N1CCN(C[C@H](O)[C@@H](O)[C@H](O)[C@H](O)CO)CC1 (stereo partly shown) on human GPR119 (hGPR119) (Homo sapiens, UniProt Q8TDV5) was 50 to 100%
